Measured half-life of individual entries
Test: In vitro metabolic stability, guinea pig liver microsome
Format: in vitro ADME
Settings: liver microsomes, 1 mg/mL liver microsome protein, 37° C., NA = essentially not metabolized, read-out: T1/2 in guinea pig liver microsome
Method: The in vitro metabolic stability of the compounds disclosed herein was determined through incubation of liver microsomes of various species. A proper amount of test compound was added into a liver microsome reaction system (1 mg/mL liver microsome protein, 25 U/mL glucose-6 phosphate dehydrogenase, 1 mM NADP, 6 mM D-glucose 6-phosphate and 5 mM MgCl2), and then the mixture was incubated in a water bath kettle at 37° C. to start the reaction. […]
parameter: half-life (min)

* COC(=O)N1CCO[C@@H](Cc2c(-c3cnc(-n4cccn4)cc3C)nc3cc(C)ccn23)C1 | 29.2
* CC(=O)N1CCO[C@@H](Cc2c(-c3c(F)cc(S(N)(=O)=O)cc3F)nc3cc(C)ccn23)C1 | 647
* COC(=O)N1CCO[C@@H](Cc2c(-c3c(F)cc(-n4ccnc4)cc3F)nc3cc(C)ccn23)C1 | 47.6
* COC(=O)N1CCO[C@@H](Cc2c(-c3c(F)cc(N4CC=CC4=O)cc3F)nc3cc(C)ccn23)C1 | 164

====

Test: In vitro metabolic stability, guinea pig liver microsome
Format: in vitro ADME
Settings: liver microsomes, 1 mg/mL liver microsome protein, 37° C., NA = essentially not metabolized, read-out: T1/2 in guinea pig liver microsome
Experimental: The in vitro metabolic stability of the compounds disclosed herein was determined through incubation of liver microsomes of various species. A proper amount of test compound was added into a liver microsome reaction system (1 mg/mL liver microsome protein, 25 U/mL glucose-6 phosphate dehydrogenase, 1 mM NADP, 6 mM D-glucose 6-phosphate and 5 mM MgCl2), and then the mixture was incubated in a water bath kettle at 37° C. to start the reaction. […]
parameter: half-life (min)

* COC(=O)N1CCO[C@@H](Cc2c(-c3c(F)cc(-c4ncc[nH]4)cc3F)nc3cc(C)ccn23)C1 | 20.9
* COC(=O)N1CCO[C@@H](Cc2c(-c3c(F)cc(S(N)(=O)=O)cc3F)nc3cc(C)ccn23)C1 | 140
* COC(=O)N1CCO[C@@H](Cc2c(-c3ccc(S(N)(=O)=O)cc3C)nc3cc(C)ccn23)C1 | 173
* COC(=O)Nc1cc(F)c(-c2nc3cc(C)ccn3c2C[C@H]2CN(C(=O)OC)CCO2)c(F)c1 | 50.5
* COC(=O)N1CCO[C@@H](Cc2c(-c3ccc(S(N)(=O)=O)cc3Cl)nc3cc(C)ccn23)C1 | 61
* COC(=O)N1CCO[C@@H](Cc2c(-c3cc(F)c(S(N)(=O)=O)cc3Cl)nc3cc(Cl)ccn23)C1 | 234
* COC(=O)N1CCO[C@@H](Cc2c(-c3c(F)cc(S(N)(=O)=O)cc3F)nc3cc(Cl)ccn23)C1 | 410
* COC(=O)N1CCO[C@@H](Cc2c(-c3c(F)cc(S(N)(=O)=O)cc3F)nc3cc(C)c(F)cn23)C1 | 61
* COC(=O)N1CCO[C@@H](Cc2c(-c3c(F)cc(-c4ncco4)cc3F)nc3cc(C)ccn23)C1 | 13.5
* COC(=O)N1CCO[C@@H](Cc2c(-c3c(F)cc(-c4ccccn4)cc3F)nc3cc(C)ccn23)C1 | 8.61
* COC(=O)N1CCO[C@@H](Cc2c(-c3c(F)cc(NC(C)=O)cc3F)nc3cc(C)ccn23)C1 | 95.3
* CNC(=O)c1cc(F)c(-c2nc3cc(C)ccn3c2C[C@H]2CN(C(=O)OC)CCO2)c(F)c1 [Positive compound 1, reference compound] | 112
* COC(=O)N1CCO[C@@H](Cc2c(-c3c(F)cc(-c4ccc[nH]4)cc3F)nc3cc(C)ccn23)C1 | 4.38
* COC(=O)N1CCO[C@@H](Cc2c(-c3c(F)cc(N4C(=O)CCC4=O)cc3F)nc3cc(C)ccn23)C1 | 128
* COC(=O)N1CCO[C@@H](Cc2c(-c3c(F)cc(-c4cccs4)cc3F)nc3cc(C)ccn23)C1 | 7.56
* COC(=O)N1CCO[C@@H](Cc2c(-c3c(F)cc(-c4cc[nH]n4)cc3F)nc3cc(C)ccn23)C1 | 16.5
* COc1cc(C(C)C)c(Oc2cnc(N)nc2N)cc1S(N)(=O)=O [Positive compound 2, reference compound] | 892
* CC(=O)N1CCO[C@@H](Cc2c(-c3c(F)cc(S(N)(=O)=O)cc3F)nc3cc(Cl)ccn23)C1 | 1110
* COC(=O)N1CCO[C@@H](Cc2c(-c3c(F)cc(-c4cccn4C)cc3F)nc3cc(C)ccn23)C1 | 2.25
* COC(=O)N1CCO[C@@H](Cc2c(-c3c(F)cc(-c4ccco4)cc3F)nc3cc(C)ccn23)C1 | 4.27

====

Target: hP2X2/3 (heterodimeric receptors formed by human purinergic P2X receptors subtype 2 and subtype 3) (Homo sapiens (Human), UniProt P56373+Q9UBL9)
Sequence (P56373 whole entry): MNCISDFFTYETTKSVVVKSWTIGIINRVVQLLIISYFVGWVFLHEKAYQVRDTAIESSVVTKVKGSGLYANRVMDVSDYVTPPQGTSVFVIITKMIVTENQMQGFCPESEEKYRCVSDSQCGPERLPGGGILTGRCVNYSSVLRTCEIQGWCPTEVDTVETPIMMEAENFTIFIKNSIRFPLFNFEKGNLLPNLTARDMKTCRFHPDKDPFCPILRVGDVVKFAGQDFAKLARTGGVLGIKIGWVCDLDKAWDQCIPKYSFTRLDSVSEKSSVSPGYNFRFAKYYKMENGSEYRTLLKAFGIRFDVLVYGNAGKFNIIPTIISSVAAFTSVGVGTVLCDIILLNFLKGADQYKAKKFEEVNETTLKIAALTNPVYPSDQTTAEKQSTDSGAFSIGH
Sequence (Q9UBL9 whole entry): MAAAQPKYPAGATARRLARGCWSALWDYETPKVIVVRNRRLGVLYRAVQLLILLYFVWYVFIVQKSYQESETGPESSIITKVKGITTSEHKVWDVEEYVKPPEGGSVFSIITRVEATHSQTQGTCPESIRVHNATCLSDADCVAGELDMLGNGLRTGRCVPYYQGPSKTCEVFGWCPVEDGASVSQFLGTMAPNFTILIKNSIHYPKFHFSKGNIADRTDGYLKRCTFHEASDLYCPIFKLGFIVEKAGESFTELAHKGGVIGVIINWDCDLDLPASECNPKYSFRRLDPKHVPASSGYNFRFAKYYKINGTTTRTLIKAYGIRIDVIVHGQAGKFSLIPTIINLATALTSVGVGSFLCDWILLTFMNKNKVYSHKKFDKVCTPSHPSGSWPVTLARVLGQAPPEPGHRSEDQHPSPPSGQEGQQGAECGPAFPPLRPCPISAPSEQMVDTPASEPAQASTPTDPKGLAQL
Test: FLIPR calcium assay, hP2X2/3 expressed in HEK293 cells (P2X2/3 receptor selectivity)
Type: cell-based
parameter: Folds of selectivity

* COC(=O)N1CCO[C@@H](Cc2c(-c3c(F)cc(S(N)(=O)=O)cc3F)nc3cc(C)ccn23)C1 | 45975

====

Measured half-life of individual entries
Assay: In vitro metabolic stability, human liver microsome
Type: in vitro ADME
Details: liver microsomes, 1 mg/mL liver microsome protein, 37° C., NA = essentially not metabolized, read-out: T1/2 in human liver microsome
parameter: half-life (h)

- COC(=O)N1CCO[C@@H](Cc2c(-c3c(F)cc(NC(=O)CCC(=O)O)cc3F)nc3cc(C)ccn23)C1: 4.97
- COC(=O)N1CCO[C@@H](Cc2c(-c3c(F)cc(S(N)(=O)=O)cc3Cl)nc3cc(C)ccn23)C1: 5.41
- COC(=O)N1CCO[C@@H](Cc2c(-c3ccc(S(N)(=O)=O)cc3C(F)(F)F)nc3cc(C)ccn23)C1: 2.41
- COC(=O)N1CCO[C@@H](Cc2c(-c3c(F)cc(-c4cccs4)cc3F)nc3cc(C)ccn23)C1: 1.53
- COC(=O)N1CCO[C@@H](Cc2c(-c3c(F)cc(-c4ccco4)cc3F)nc3cc(C)ccn23)C1: 2.52
- COC(=O)N1CCO[C@@H](Cc2c(-c3ccc(S(N)(=O)=O)cc3Cl)nc3cc(Cl)ccn23)C1: 20.6

====

Measured half-life of individual entries
Assay: In vitro metabolic stability, rat liver microsome
Format: in vitro ADME
Details: liver microsomes, 1 mg/mL liver microsome protein, 37° C., NA = essentially not metabolized, read-out: T1/2 in rat liver microsome
parameter: half-life (min)

- COC(=O)N1CCO[C@@H](Cc2c(-c3c(F)cc(S(N)(=O)=O)cc3F)nc3cc(Cl)ccn23)C1 [Compound 172]: 223
- COC(=O)N1CCO[C@@H](Cc2c(-c3ccc(S(N)(=O)=O)cc3C)nc3cc(C)ccn23)C1 [Compound 184]: 5.66
- COC(=O)N1CCO[C@@H](Cc2c(-c3c(F)cc(N4C(=O)CCC4=O)cc3F)nc3cc(C)ccn23)C1 [Compound 26]: 80.9
- CC(=O)N1CCO[C@@H](Cc2c(-c3c(F)cc(S(N)(=O)=O)cc3F)nc3cc(C)ccn23)C1 [Compound 173]: 101
- COc1cc(C(C)C)c(Oc2cnc(N)nc2N)cc1S(N)(=O)=O [Positive compound 2, reference compound]: 1090
- COC(=O)N1CCO[C@@H](Cc2c(-c3c(F)cc(S(N)(=O)=O)cc3F)nc3cc(C)ccn23)C1 [Compound 171]: 8.48
- COC(=O)N1CCO[C@@H](Cc2c(-c3cc(F)c(S(N)(=O)=O)cc3Cl)nc3cc(Cl)ccn23)C1 [Compound 181]: 188
- CC(=O)N1CCO[C@@H](Cc2c(-c3c(F)cc(S(N)(=O)=O)cc3F)nc3cc(Cl)ccn23)C1 [Compound 174]: 398
- COC(=O)N1CCO[C@@H](Cc2c(-c3c(F)cc(NC(=O)CCC(=O)O)cc3F)nc3cc(C)ccn23)C1 [Compound 25]: 228
- COC(=O)N1CCO[C@@H](Cc2c(-c3c(F)cc(S(N)(=O)=O)cc3F)nc3cc(C)c(F)cn23)C1 [Compound 182]: 10.9
- COC(=O)N1CCO[C@@H](Cc2c(-c3c(F)cc(-c4ncco4)cc3F)nc3cc(C)ccn23)C1 [Compound 10]: 30.8
- COC(=O)N1CCO[C@@H](Cc2c(-c3cnc(-n4cccn4)cc3C)nc3cc(C)ccn23)C1 [Compound 168]: 57.6
- COC(=O)N1CCO[C@@H](Cc2c(-c3c(F)cc(-n4ccnc4)cc3F)nc3cc(C)ccn23)C1 [Compound 5]: 37.3
- COC(=O)N1CCO[C@@H](Cc2c(-c3c(F)cc(NC(C)=O)cc3F)nc3cc(C)ccn23)C1 [Compound 2]: 52.3
- COC(=O)N1CCO[C@@H](Cc2c(-c3c(F)cc(-c4cc[nH]n4)cc3F)nc3cc(C)ccn23)C1 [Compound 15]: 25.4
- COC(=O)N1CCO[C@@H](Cc2c(-c3c(F)cc(-c4cccn4C)cc3F)nc3cc(C)ccn23)C1 [Compound 13]: 2.24
- COC(=O)Nc1cc(F)c(-c2nc3cc(C)ccn3c2C[C@H]2CN(C(=O)OC)CCO2)c(F)c1 [Compound 3]: 28.7
- COC(=O)N1CCO[C@@H](Cc2c(-c3c(F)cc(-c4ccco4)cc3F)nc3cc(C)ccn23)C1 [Compound 11]: 5.65
